Ref: patent US20230381142A1

# System: L. donovani intracellular amastigotes infecting THP-1 macrophages
# procedure-summary: GSK intramacrophage L. donovani assay (LD AMMAC, inMac; Assay Conditions C)
# Type: cell-based
# measurement-conditions: Leishmania donovani; values marked c: THP-1 cells; read-out: L. donovani amastigotes EC50 (μM, THP-1 or B10R cells)
quantity-name: EC50 (µM)

{"molecule": "CC(C)Cc1n[nH]c2c1C(c1ccc(F)cc1)N(c1ccc(N3CCCC3=O)cc1)C2=O (centres unmarked) [CMLD011560]", "reading": 4}
{"molecule": "COc1ncc(N2C(=O)c3[nH]nc(CC(C)C)c3C2c2ccc(F)cc2)cc1C (centres unmarked) [CMLD011555]", "reading": 10}
{"molecule": "C=CCn1nc2c(c1CC(C)C)C(c1ccc(F)cc1)N(c1ccc(OC)cc1)C2=O (centres unmarked) [CMLD010984]", "reading": 6.3}
{"molecule": "COc1cccc(N2C(=O)c3[nH]nc(CC(C)C)c3C2C2CCCCC2)c1 (centres unmarked) [CMLD011044]", "reading": 6.3}
{"molecule": "COc1ccc(N2C(=O)c3[nH]nc(CC(C)C)c3C2c2ccc(C)s2)cc1 (centres unmarked) [CMLD011123]", "reading": 5}
{"molecule": "COc1ccc(N2C(=O)c3[nH]nc(CC(C)C)c3C2C2CCCCC2)cc1F (centres unmarked) [CMLD011090]", "reading": 5}
{"molecule": "COc1ccc(N2C(=O)c3[nH]nc(CC(C)C)c3[C@H]2c2cccc(C(F)(F)F)c2)cn1 [CMLD011076]", "reading": 10}
{"molecule": "CC(C)Cc1n[nH]c2c1C(c1ccccc1Cl)N(c1ccc(F)cc1)C2=O (centres unmarked) [CMLD011078]", "reading": 4}
